The reported measurements were obtained from ChEMBL document CHEMBL3046370.

Listed below: log10 MIC values for each entry.
- Tested on: Candida albicans
- Assay protocol: Antifungal activity against fluconazole-sensitive Candida albicans ATCC 10231 after 48 hr by broth dilution method
- Assay type: functional
- Experimental context: ATCC 10231, 48 h
Measured property: log10 MIC (log10 of the value in µg/mL)

[
  {
    "Chem smiles": "CSc1ccc(/C=C/C(=O)c2cccc(O)c2)cc1",
    "log10 MIC": 1.30
  },
  {
    "Chem smiles": "CSc1ccc(/C=C/C(=O)c2ccc(-c3ccccc3)cc2)cc1",
    "log10 MIC": 2.00
  },
  {
    "Chem smiles": "CSc1ccc(/C=C/C(=O)c2ccccc2)cc1",
    "log10 MIC": 1.30
  },
  {
    "Chem smiles": "COc1ccc(/C=C/C(=O)c2ccc(Br)s2)cc1OC",
    "log10 MIC": 1.70
  },
  {
    "Chem smiles": "CSc1ccc(/C=C/C(=O)c2ccc(F)cc2)cc1",
    "log10 MIC": 0.70
  },
  {
    "Chem smiles": "COc1ccc(/C=C/C(=O)c2cccs2)cc1",
    "log10 MIC": 1.30
  },
  {
    "Chem smiles": "COc1ccc(C(=O)/C=C/c2ccc(SC)cc2)cc1",
    "log10 MIC": 1.00
  },
  {
    "Chem smiles": "COc1ccc(/C=C/C(=O)c2ccc(Br)s2)cc1",
    "log10 MIC": 1.70
  },
  {
    "Chem smiles": "CSc1ccc(/C=C/C(=O)c2ccc(Cl)cc2Cl)cc1",
    "log10 MIC": 1.70
  },
  {
    "Chem smiles": "COc1ccc(/C=C/C(=O)c2cccs2)cc1OC",
    "log10 MIC": 1.00
  },
  {
    "Chem smiles": "CSc1ccc(/C=C/C(=O)c2ccc(Cl)cc2)cc1",
    "log10 MIC": 1.00
  },
  {
    "Chem smiles": "CSc1ccc(/C=C/C(=O)c2cccs2)cc1",
    "log10 MIC": 0.70
  },
  {
    "Chem smiles": "CSc1ccc(/C=C/C(=O)c2ccc(Br)s2)cc1",
    "log10 MIC": 1.60
  }
]

---

- System: Candida albicans
- Assay protocol: Antifungal activity against fluconazole-sensitive Candida albicans ATCC 10231 after 48 hr by broth dilution method
- Format: functional
- Experimental context: ATCC 10231, 48 h

[
  {
    "Compound": "CSc1ccc(/C=C/C(=O)c2ccc([N+](=O)[O-])cc2)cc1",
    "MIC, µg/mL": 50
  },
  {
    "Compound": "OC(Cn1cncn1)(Cn1cncn1)c1ccc(F)cc1F [FLUCONAZOLE]",
    "MIC, µg/mL": 20
  },
  {
    "Compound": "CSc1ccc(/C=C/C(=O)c2ccccc2O)cc1",
    "MIC, µg/mL": 20
  },
  {
    "Compound": "CSc1ccc(/C=C/C(=O)c2ccc(Br)cc2)cc1",
    "MIC, µg/mL": 40
  },
  {
    "Compound": "O=C(/C=C/c1ccc(-c2ccccc2)cc1)c1cccs1",
    "MIC, µg/mL": 100
  },
  {
    "Compound": "O=C(/C=C/c1ccc(-c2ccccc2)cc1)c1ccc(Br)s1",
    "MIC, µg/mL": 100
  },
  {
    "Compound": "COc1ccc(C(=O)/C=C/c2ccc(OC)c(OC)c2)cc1",
    "MIC, µg/mL": 20
  },
  {
    "Compound": "CSc1ccc(/C=C/C(=O)c2ccc(O)cc2)cc1",
    "MIC, µg/mL": 20
  }
]
